# credit: the supplement of paper PMC4862054

I'd be grateful if you could share measured normalised response for these entries.
# Test system: HCC1143
# assay: normalised response (% of control), CellTiter-Glo; higher = more viable cells (100 = DMSO, 0 = benzethonium chloride kill control)
# condition-context: incubation time: 72 h
One number for each entry, in %.

Completed entries (count: 3):
molecule="S=c1[nH]cnc2nc[nH]c12 [Mercaptopurine] (100 nM)" value_observed=104
molecule="C=CC[C@@H]1/C=C(\\C)C[C@H](C)C[C@H](OC)[C@H]2O[C@@](O)(C(=O)C(=O)N3CCCC[C@H]3C(=O)O[C@H](/C(C)=C/[C@@H]3CC[C@@H](O)[C@H](OC)C3)[C@H](C)[C@@H](O)CC1=O)[C@H](C)C[C@@H]2OC [Tacrolimus] (100 nM)" value_observed=101
molecule="CCN1CCN(c2ccc(Nc3cc(N(C)C(=O)Nc4c(Cl)c(OC)cc(OC)c4Cl)ncn3)cc2)CC1 [NVP-BGJ398] (10 nM)" value_observed=100

// input: 2 molecules below; output: normalised response for each
1. COc1cc(Nc2ncc3c(n2)-c2ccc(Cl)cc2C(c2c(F)cccc2OC)=NC3)ccc1C(=O)O [Alisertib] (100 nM)
2. CN1CCC(COc2cnc(-c3cccc(Cn4nc(-c5cccc(C#N)c5)ccc4=O)c3)nc2)CC1 (10 nM)

1: 71.2; 2: 101

---

# Tested on: CAL-85-1
# assay: normalised response (% of control), CellTiter-Glo; higher = more viable cells (100 = DMSO, 0 = benzethonium chloride kill control)
# condition-context: incubation time: 72 h
result-type: normalised response (%)
Numbers only, in %.

Completed entries (count: 3):
compound="CS(=O)(=O)c1ccc(C(=O)Nc2ccc(Cl)c(-c3ccccn3)c2)c(Cl)c1 [Vismodegib] (100 nM)" result_unit=% value_observed=98.8
compound="N#CC[C@H](C1CCCC1)n1cc(-c2ncnc3[nH]ccc23)cn1 [Ruxolitinib] (100 nM)" result_unit=% value_observed=95.1
compound="CN1CC[C@H](c2c(O)cc(O)c3c(=O)cc(-c4ccccc4Cl)oc23)[C@H](O)C1 [Alvocidib] (100 nM)" result_unit=% value_observed=104

Give the measured normalised response for C=CCNC1=C2C[C@@H](C)C[C@H](OC)[C@H](O)[C@@H](C)/C=C(\C)[C@H](OC(N)=O)[C@@H](OC)/C=C\C=C(/C)C(=O)NC(=CC1=O)C2=O [Tanespimycin] (100 nM) 98.8

---

Give drug sensitivity score for every item shown.
# System: Hs578T
# assay: drug sensitivity score (DSS), CellTiter-Glo (DSS (AUC-based score)); higher = stronger drug effect (viability inhibition or cytotoxicity); extreme values may be limits of the assay
# condition-context: incubation time: 72 h
Numbers only.

Example entries begin here.
molecule=N#CC[C@H](C1CCCC1)n1cc(-c2ncnc3[nH]ccc23)cn1 value_observed=0
molecule="Clc1ccc(C(c2ccccc2Cl)C(Cl)Cl)cc1 (configuration not stated)" value_observed=0
molecule=CS(=O)(=O)c1ccc(C(=O)Nc2ccc(Cl)c(-c3ccccn3)c2)c(Cl)c1 value_observed=0
molecule=CN(C)C/C=C/C(=O)Nc1cc2c(Nc3ccc(F)c(Cl)c3)ncnc2cc1O[C@H]1CCOC1 value_observed=0
molecule=CN1CC[C@H](c2c(O)cc(O)c3c(=O)cc(-c4ccccc4Cl)oc23)[C@H](O)C1 value_observed=16.2
molecule=Nc1ccn([C@@H]2O[C@H](CO)[C@@H](O)[C@@H]2O)c(=O)n1 value_observed=2.8

// moving on: another record for drug sensitivity score
State its drug sensitivity score for this molecule: O=C(c1ccc(C(=O)N2CCC(N3CCCC3)CC2)c(Nc2ccccc2)c1)N1CCC(N2CCCC2)CC1 0
